Study Target: 1-deoxy-D-xylulose 5-phosphate reductoisomerase (Escherichia coli K-12) (UniProt P45568)
Sequence (whole entry): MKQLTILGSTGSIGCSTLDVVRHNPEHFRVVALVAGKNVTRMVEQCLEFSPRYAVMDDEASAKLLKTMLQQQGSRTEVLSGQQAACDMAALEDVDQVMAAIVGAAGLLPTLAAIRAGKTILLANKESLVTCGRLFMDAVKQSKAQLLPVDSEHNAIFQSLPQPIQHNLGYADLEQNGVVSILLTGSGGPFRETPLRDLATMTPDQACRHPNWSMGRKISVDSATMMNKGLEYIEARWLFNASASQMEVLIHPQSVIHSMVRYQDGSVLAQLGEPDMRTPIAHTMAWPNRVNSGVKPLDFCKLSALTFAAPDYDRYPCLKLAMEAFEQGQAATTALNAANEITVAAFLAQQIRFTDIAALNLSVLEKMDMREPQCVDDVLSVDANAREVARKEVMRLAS
Assay Name: Inhibition of His-tagged Escherichia coli DXR at 20 uM pre-incubated for 2 mins before reaction initiation in presence of 160 uM NADPH in presence of 0.01% Triton X100
Assay Metric: inhibition

[
  {
    "Mol": "Cc1ccc(Oc2ccc(NC(=O)CN3C(=O)/C(=C/c4ccc(O)c(O)c4)SC3=S)cc2)cc1",
    "Observed Value": "10%"
  },
  {
    "Mol": "O=C(CN1C(=O)/C(=C/c2cccc(O)c2O)SC1=S)Nc1ccc(Oc2ccc(Cl)cc2)cc1",
    "Observed Value": "< 5%"
  },
  {
    "Mol": "Cc1ccc(Oc2ccc(NC(=O)CN3C(=O)/C(=C/c4cccc(O)c4O)SC3=S)cc2)cc1",
    "Observed Value": "< 5%"
  },
  {
    "Mol": "O=C(CN1C(=O)/C(=C/c2ccc(O)c(O)c2)SC1=S)Nc1ccc(Oc2ccc(Cl)cc2)cc1",
    "Observed Value": "< 5%"
  }
]

###

Study Target: UniProt P45568
Assay Name: Inhibition of His-tagged Escherichia coli DXR pre-incubated for 2 mins before reaction initiation in presence of 160 uM NADPH in presence of 0.01% Triton X100
pIC50: −log10 of the molar value.
Assay Metric: pIC50

[
  {
    "Mol": "O=C(O)CN1C(=O)/C(=C/c2ccc(O)c(O)c2)SC1=S",
    "Observed Value": 5.36
  },
  {
    "Mol": "O=C(CN1C(=O)/C(=C/c2ccc(O)c(O)c2)SC1=S)NO",
    "Observed Value": 5.21
  }
]

###

pIC50 for assorted compounds
Study Target: Malate dehydrogenase (Thermus thermophilus, UniProt P10584)
Sequence (P10584 whole entry): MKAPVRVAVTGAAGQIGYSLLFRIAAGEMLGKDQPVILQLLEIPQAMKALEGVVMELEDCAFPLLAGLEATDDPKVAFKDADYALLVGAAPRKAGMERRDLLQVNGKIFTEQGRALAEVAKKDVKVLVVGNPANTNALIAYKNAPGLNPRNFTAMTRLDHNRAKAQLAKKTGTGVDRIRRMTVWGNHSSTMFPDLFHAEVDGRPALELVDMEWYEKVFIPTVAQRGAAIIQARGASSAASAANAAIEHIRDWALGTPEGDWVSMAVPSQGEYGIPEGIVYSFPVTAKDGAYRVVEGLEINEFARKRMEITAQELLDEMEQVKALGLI
Assay Name: Inhibition of Thermus flavus MDH pre-incubated for 4 mins before reaction initiation in presence of OAA and NAPH in absence of 0.01% Triton X100 by UV-Vis spectrophotometry
pIC50: −log10 of the molar value.

[
  {
    "Mol": "Cc1ccc(Oc2ccc(NC(=O)CN3C(=O)/C(=C/c4cccc(O)c4O)SC3=S)cc2)cc1",
    "pIC50": 6.00
  },
  {
    "Mol": "O=C(CN1C(=O)/C(=C/c2ccc(O)c(O)c2)SC1=S)Nc1ccc(Oc2ccc(Cl)cc2)cc1",
    "pIC50": 6.30
  },
  {
    "Mol": "O=C(CN1C(=O)/C(=C/c2ccc(O)c(O)c2)SC1=S)NO",
    "pIC50": 5.47
  },
  {
    "Mol": "O=C(CN1C(=O)/C(=C/c2ccc(O)cc2O)SC1=S)Nc1ccc(Oc2ccc(Cl)cc2)cc1",
    "pIC50": 5.89
  },
  {
    "Mol": "Cc1ccc(Oc2ccc(NC(=O)CN3C(=O)/C(=C/c4ccc(O)c(O)c4)SC3=S)cc2)cc1",
    "pIC50": 6.40
  },
  {
    "Mol": "O=C(O)CN1C(=O)/C(=C/c2ccc(O)c(O)c2)SC1=S",
    "pIC50": 5.33
  },
  {
    "Mol": "O=C(CN1C(=O)/C(=C/c2cccc(O)c2O)SC1=S)Nc1ccc(Oc2ccc(Cl)cc2)cc1",
    "pIC50": 6.15
  }
]
